Entry source: patent US12331026B2

# IC50 listing for each entry below
# ASSAY_TARGET: CDK2 (Homo sapiens, UniProt P24941)
# Construct: endogenous in cells; host or cells: OVCAR3 cells
# MEASUREMENT_PROTOCOL: Phospho-RB measurement in OVCAR3 cells (HTRF phospho-RB S807/811)
# Format: cell-based
# PARTICULARS: phosphorylation of RB protein at S807/811, HTRF, 24 h compound treatment, 0.3 to 10,000 nM, read-out: pRb (uM)
Your answer should be a plain number; it is taken to be in µM.

O=S1(=O)CC2(CC(Nc3nccc(-c4sc(N5C6CCC5CN(C5CCC(F)(F)CC5)C6)nc4-c4cccc(NS(=O)(=O)c5c(F)cccc5F)c4F)n3)C2)C1 : 0.91
CS(=O)(=O)[C@H]1CC[C@H](Nc2nccc(-c3sc(C45CC(C(F)F)(C4)C5)nc3-c3cccc(NS(=O)(=O)c4c(F)cccc4C(F)(F)F)c3F)n2)CC1 : 0.08
O=S1(=O)CC2(CC(Nc3nccc(-c4sc(C56CC(C5)C6)nc4-c4cccc(NS(=O)(=O)c5c(F)cccc5C(F)(F)F)c4F)n3)C2)C1 : 0.016

Would you kindly share the measured IC50 for O=S1(=O)C[C@@H]2[C@H](C1)[C@H]2Nc1nccc(-c2sc(N3C4CCC3CN(C3CC3)C4)nc2-c2cccc(NS(=O)(=O)c3c(F)cccc3F)c2F)n1 ?
0.06

Would you kindly share the measured IC50 for O=S1(=O)CC2(CC(Nc3nccc(-c4sc(C56CC(F)(C5)C6)nc4-c4cccc(NS(=O)(=O)c5c(F)cccc5C(F)(F)F)c4F)n3)C2)C1 ?
0.04

---

# ASSAY_TARGET: CDK2 (Homo sapiens, UniProt P24941)
# Construct: endogenous in cells; host or cells: OVCAR3 cells
# MEASUREMENT_PROTOCOL: Phospho-RB measurement in OVCAR3 cells (HTRF phospho-RB S807/811)
# Assay type: cell-based
# PARTICULARS: phosphorylation of RB protein at S807/811, HTRF, 24 h compound treatment, 0.3 to 10,000 nM, read-out: pRb (uM)
ATTRIBUTE_MEASURED: log10 IC50 (log10 of the value in µM)
Log10 applied to IC50; unit prior to transform: µM.

The examples below pair each entry with its known result.
O=S1(=O)C[C@@H]2[C@H](C1)[C@@H]2Nc1nccc(-c2sc(C34CCC(CC3)CC4)nc2-c2cccc(NS(=O)(=O)c3c(F)cccc3F)c2F)n1 [Example 119] : 0.13
O=S1(=O)CC2(CC(Nc3nccc(-c4sc(N5C6CCC5CN(C5CC(F)(F)C5)C6)nc4-c4cccc(NS(=O)(=O)c5c(F)cccc5C(F)(F)F)c4F)n3)C2)C1 [Example 149] : -1.05
O=S1(=O)CC2(CC(Nc3nccc(-c4sc(C56CC(C5)C6)nc4-c4cccc(NS(=O)(=O)c5c(F)cccc5C5CC5)c4F)n3)C2)C1 [Example 41] : -0.44

Would you kindly share the measured log10 IC50 for CN1CC2CCC(C1)N2c1nc(-c2cccc(NS(=O)(=O)c3c(F)cccc3OC(F)F)c2F)c(-c2ccnc(NC3CC4(C3)CS(=O)(=O)C4)n2)s1 [Example 66] ?
-0.82

Would you kindly share the measured log10 IC50 for O=S1(=O)CC2(CC(Nc3nccc(-c4sc(C5(C(F)F)CC5)nc4-c4cccc(NS(=O)(=O)c5c(F)cccc5OC(F)F)c4F)n3)C2)C1 [Example 81] ?
-0.85

Would you kindly share the measured log10 IC50 for C[C@H]1CN(C)C[C@H](C)N1c1nc(-c2cccc(NS(=O)(=O)c3c(F)cccc3C(F)(F)F)c2F)c(-c2ccnc(NC3CC4(C3)CS(=O)(=O)C4)n2)s1 [Example 70] ?
-1.52

Would you kindly share the measured log10 IC50 for O=S1(=O)C[C@@H]2[C@H](C1)[C@@H]2Nc1nccc(-c2sc(N3C4CCC3CN(C3CC(F)(F)C3)C4)nc2-c2cccc(NS(=O)(=O)c3c(F)cccc3F)c2F)n1 [Example 106] ?
-0.17

Would you kindly share the measured log10 IC50 for O=S1(=O)CC2(CC(Nc3nccc(-c4sc(C56CC(C(F)(F)F)(C5)C6)nc4-c4cccc(NS(=O)(=O)c5c(Cl)cccc5C(F)(F)F)c4F)n3)C2)C1 [Example 91] ?
-0.82

Would you kindly share the measured log10 IC50 for O=S1(=O)C[C@@H]2[C@H](C1)[C@H]2Nc1nccc(-c2sc(C34CC(C3)C4)nc2-c2cccc(NS(=O)(=O)c3c(F)cccc3OC(F)F)c2F)n1 [Example 113] ?
-1.15
